molecules and their reported IC50
biological target: group IVa PLA2 (cPLA2) (Homo sapiens (Human)); experiment: In vitro cPLA2 enzyme activity assay; assay type: biochemical; settings: read-out: cPLA2 in vitro assay IC50
Sequence (P47712 whole entry): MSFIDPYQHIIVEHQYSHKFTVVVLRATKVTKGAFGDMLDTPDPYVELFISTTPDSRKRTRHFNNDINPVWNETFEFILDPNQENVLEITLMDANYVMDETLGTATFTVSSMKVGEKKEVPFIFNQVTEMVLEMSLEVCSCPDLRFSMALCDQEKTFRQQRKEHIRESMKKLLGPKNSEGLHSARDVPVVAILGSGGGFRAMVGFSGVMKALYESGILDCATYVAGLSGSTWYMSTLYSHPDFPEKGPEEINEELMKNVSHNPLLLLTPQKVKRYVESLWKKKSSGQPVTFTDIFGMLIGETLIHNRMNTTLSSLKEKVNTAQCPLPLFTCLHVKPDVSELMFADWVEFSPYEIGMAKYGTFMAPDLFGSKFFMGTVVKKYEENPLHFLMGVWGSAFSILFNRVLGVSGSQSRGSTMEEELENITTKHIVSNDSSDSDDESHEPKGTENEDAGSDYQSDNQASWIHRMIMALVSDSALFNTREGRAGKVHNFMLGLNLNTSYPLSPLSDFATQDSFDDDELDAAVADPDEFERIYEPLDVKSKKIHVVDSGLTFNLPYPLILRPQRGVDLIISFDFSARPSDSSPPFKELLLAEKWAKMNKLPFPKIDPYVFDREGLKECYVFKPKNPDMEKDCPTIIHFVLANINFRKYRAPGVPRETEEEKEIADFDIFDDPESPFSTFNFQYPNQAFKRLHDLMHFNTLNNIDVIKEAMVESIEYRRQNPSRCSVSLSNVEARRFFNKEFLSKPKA
Report the figure in µM without appending any unit label.

smiles-entry	study-target	reading-unit	IC50
CCc1ccc(OCC(=O)c2nccs2)cc1	group IVa PLA2 (cPLA2) (Homo sapiens (Human))	µM	2

# next molecule below
Per the record, `CCC(=O)c1nc(C(=O)O)cs1` has IC50 of 7.2

* * *

Measured inhibition at 10 µM, listed per entry for reference.
system: PGE2; assay: PGE2-assay (EIA kit detection); assay type: cell-based; settings: 10 uM
// unit must come after the numeric part

smiles-entry	inhibition at 10 µM
CCOC(=O)c1csc(C(=O)CCCCc2ccccc2)n1	30%
CCC(=O)c1nc(C(=O)O)cs1	12%

Sample `O=C(CCCCc1ccccc1)c1nc2ccccc2s1` , system: PGE2. Its inhibition at 10 µM is 23%

Sample `O=C(CCCCc1ccc2ccccc2c1)c1nc2ccccc2s1` , system: PGE2. Its inhibition at 10 µM is 16.3%
